All figures here come from ChEMBL document CHEMBL1926586.

- Test system: Plasmodium falciparum
- ASSAY REMARKS: Antimalarial activity against chloroquine-resistant Plasmodium falciparum W2 infected in human type A-positive red blood cells assessed as parasite lactate dehydrogenase activity after 72 hrs by spectrophotometric analysis
- Assay type: functional, organism-based
- COND: W2, 72 h
READOUT NAME: IC50 (µM)
Return type: number; implicit unit µM.

Examples from the recorded data:
• CCCCC1(CCCC)C[C@H](C(=O)OC)[C@](C)(OC)OO1 (mixture of isomers) = 2.5
• CCCC[C@@]1(C)C[C@H](C(=O)OC)[C@@](C)(OC)OO1 (mixture of isomers) = 6.4
• CCCCC1(CCCC)C[C@H](C(=O)OC)[C@@](CCCC)(OC)OO1 (racemic) = 1.2
• CCCC[C@@]1(OC)OOC(C)(C)C[C@@H]1C(=O)OC (mixture of isomers) = 1.5
• CCCCC1(CCCC)C[C@H](C(=O)OC)[C@](CCCC)(OC)OO1 (mixture of isomers) = 1.2
• CCCC[C@]1(C)C[C@H](C(=O)OC)[C@@](C)(OC)OO1 (mixture of isomers) = 8.4

Now for a further molecule.
Inquiry: Record request: IC50 value, item CCCC[C@@]1(C)C[C@H](C(=O)OC)[C@](C)(OC)OO1 (mixture of isomers)
Reply text: 11.8
